# tgt: T1, NPY2 receptor (human (printed as hNPY2R), UniProt P49146 1-381)
# T1 sequence (looked up): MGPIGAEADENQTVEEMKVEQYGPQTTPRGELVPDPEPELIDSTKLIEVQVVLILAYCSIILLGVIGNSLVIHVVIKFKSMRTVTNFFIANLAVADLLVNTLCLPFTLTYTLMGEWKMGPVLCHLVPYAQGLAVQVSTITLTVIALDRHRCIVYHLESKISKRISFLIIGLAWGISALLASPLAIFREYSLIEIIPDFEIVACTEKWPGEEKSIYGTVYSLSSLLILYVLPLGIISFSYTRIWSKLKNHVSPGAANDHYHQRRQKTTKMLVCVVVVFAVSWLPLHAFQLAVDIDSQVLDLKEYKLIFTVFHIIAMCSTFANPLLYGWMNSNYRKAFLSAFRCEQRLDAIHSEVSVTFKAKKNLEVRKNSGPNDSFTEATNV
# test.protocol: cell-based or functional assay
Starred links: 1 amine or outer side, 2 acyl side, 3 side chain; linkers in the order of their positions; H or OH if unused. Non-standard residues stand in square brackets, D forms with d. Groups on a side chain read outwards from the residue. No end group written: not given here. *: point of attachment. C20 diacid = O=C(O)CCCCCCCCCCCCCCCCCCC(=O)*; C18 diacid = O=C(O)CCCCCCCCCCCCCCCCC(=O)*; γGlu = O=C(O)[C@H](CCC(=O)[*:2])N[*:1]; AEEA = NCCOCCOCC(=O)O; Aib = CC(C)(N)C(=O)O
Here, each record is paired with measured EC50 hNPY2R 100% hP (CreLuc) data.
readout.type: EC50 hNPY2R 100% hP (CreLuc) (nM)

Y[Aib]EGTFTSDYSI[Aib]LEKQAQ[Aib]AFVQWLIK([AEEA-AEEA-Glu-Glu-Glu-C18 diacid])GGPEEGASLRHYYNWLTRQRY-NH2 (also: TFA salt) [Compound 188] ... 105
Y[Aib]EGTFTSDYSI[Aib]LEKQAQ[Aib]EFVQWLIK([γGlu-γGlu-γGlu-γGlu-C18 diacid])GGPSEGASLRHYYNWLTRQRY-NH2 (also: TFA salt) [Compound 202] ... 64.5
YXEGTFTSDYSIXLEKQAQXAFVEWLIKGGPSSGASLRHYYNXLTRQRY (Aib at 2, 13, 20, 43; K28 side chain carries C20DA-gGlu-gGlu-gGlu-gGlu-gGlu-gGlu-eLys; C-terminal amide) [Compound 218] ... 623
YXEGTFTSDYSIXLEKQAQXAFVEWLIKGGPSEPASLRHYYNWLTRQRY (Aib at 2, 13, 20; K28 side chain carries C20DA-gGlu-gGlu-gGlu-gGlu-gGlu-gGlu-eLys; C-terminal amide) [Compound 233] ... 27.1
Y[Aib]EGTFTSDYSI[Aib]LEKQAQ[Aib]AFVQWLIK([AEEA-AEEA-Glu-Glu-Glu-Glu-C18 diacid])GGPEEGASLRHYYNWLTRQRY-NH2 (also: TFA salt) [Compound 177] ... 115
YXEGTFTSDYSIXLEKQAQXEFVEWLIKGGPSEGASLRHYYNWLTRQRY (Aib at 2, 13, 20; K28 side chain carries C18DA-gGlu-gGlu-gGlu-gGlu-gGlu-gGlu-eLys; C-terminal amide) [Compound 255] ... 40.9
Y[Aib]EGTFTSDYSI[Aib]LEKQAQ[Aib]AFVQWLIK([AEEA-AEEA-γGlu-γGlu-γGlu-γGlu-C20 diacid])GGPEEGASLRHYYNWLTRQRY-NH2 (also: TFA salt) [Compound 193] ... 73.3
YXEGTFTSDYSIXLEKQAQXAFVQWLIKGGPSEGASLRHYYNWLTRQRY (Aib at 2, 13, 20; K28 side chain carries C20DA-gGlu-gGlu-gGlu-gGlu-gGlu-gGlu-eLys; C-terminal amide) [Compound 220] ... 42.6
Y[Aib]EGTFTSDYSI[Aib]LEKQAQ[Aib]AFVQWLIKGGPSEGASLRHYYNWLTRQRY-NH2 (not fully specified (residue 28); also: TFA salt) [Compound 245] ... 66.9
